Tested on: Klebsiella aerogenes
assay-details: Antibacterial activity against multidrug resistant Enterobacter aerogenes EA289 over-expressing AcrAB-TolC after 18 hrs in presence of polymyxin B nonapeptide by broth dilution method
Format: functional
measurement-parameters: EA289, 18 h
measurement-type: MIC (µM)
Give just the numeric value; µM need not be written.

The recorded MIC with Klebsiella aerogenes for NC[C@H]1O[C@H](O[C@H]2[C@H](O)[C@@H](O)[C@H](N)C[C@@H]2N)[C@H](N)[C@@H](O)[C@@H]1O was 16

Readout MIC for NC[C@H]1O[C@H](O[C@H]2[C@H](OCCCCCCNC(=O)CCCC(=O)N3CCCNCCNCCCNCC3)[C@@H](OCc3ccc4ccccc4c3)[C@H](N)C[C@@H]2N)[C@H](N)[C@@H](OCc2ccc3ccccc3c2)[C@@H]1OCc1ccc2ccccc2c1 , test system Klebsiella aerogenes, was 8

* * *

Test system: Klebsiella aerogenes
assay-details: Antibacterial activity against multidrug resistant Enterobacter aerogenes EA289 over-expressing AcrAB-TolC after 18 hrs in presence of polymyxin B nonapeptide by broth dilution method
Assay type: functional
measurement-parameters: EA289, 18 h
Provide the recorded MIC for the entries that follow.
Report as a plain number; the unit µM is understood.

The recorded MIC for entry NC[C@H]1O[C@H](O[C@H]2[C@H](OCCCCCCNC(=O)CCCCN(Cc3ccccn3)Cc3ccccn3)[C@@H](OCc3ccc4ccccc4c3)[C@H](N)C[C@@H]2N)[C@H](N)[C@@H](OCc2ccc3ccccc3c2)[C@@H]1OCc1ccc2ccccc2c1 equals 8

Memo: NC[C@H]1O[C@H](O[C@H]2[C@H](OCCCCCCNC(=O)CCCC(=O)Nc3cccc(CN(Cc4ccccc4)Cc4ccccc4)c3)[C@@H](OCc3ccc4ccccc4c3)[C@H](N)C[C@@H]2N)[C@H](N)[C@@H](OCc2ccc3ccccc3c2)[C@@H]1OCc1ccc2ccccc2c1 , reported MIC: 128

* * *

Tested on: Klebsiella aerogenes
assay-details: Antibacterial activity against Enterobacter aerogenes EA298 TolC deficient after 18 hrs by broth dilution method
measurement-parameters: EA298, 18 h
I'd appreciate it if you could supply MIC values for the items below.

Simply: O=C(N[C@H](CO)[C@H](O)c1ccc([N+](=O)[O-])cc1)C(Cl)Cl [CHLORAMPHENICOL] , Klebsiella aerogenes, MIC = 32 µM

Case NC[C@H]1O[C@H](O[C@H]2[C@H](OCCCCCCNC(=O)CCCC(=O)Nc3cccc(CN(Cc4ccccn4)Cc4ccccn4)n3)[C@@H](OCc3ccc4ccccc4c3)[C@H](N)C[C@@H]2N)[C@H](N)[C@@H](OCc2ccc3ccccc3c2)[C@@H]1OCc1ccc2ccccc2c1 , Klebsiella aerogenes, MIC recorded as 2 to 8 µM

Observed MIC on Klebsiella aerogenes, entry NC[C@H]1O[C@H](O[C@H]2[C@H](O)[C@@H](O)[C@H](N)C[C@@H]2N)[C@H](N)[C@@H](O)[C@@H]1O [NEAMINE] , equals > 128 µM

* * *

Tested on: Klebsiella aerogenes
assay-details: Antibacterial activity against Enterobacter aerogenes EA298 TolC deficient after 18 hrs by broth dilution method
measurement-parameters: EA298, 18 h
Would you mind telling me the reported MIC of each entry?
Only the number, expressed in µM, is required.

Summary for this molecule, NC[C@H]1O[C@H](O[C@H]2[C@H](OCCCCCCNC(=O)CCCCN(Cc3ccccn3)Cc3ccccn3)[C@@H](OCc3ccc4ccccc4c3)[C@H](N)C[C@@H]2N)[C@H](N)[C@@H](OCc2ccc3ccccc3c2)[C@@H]1OCc1ccc2ccccc2c1 : MIC is 8

Entry [N-]=[N+]=NCCCCCCO[C@@H]1[C@@H](OCc2ccc3ccccc3c2)[C@H](N)C[C@H](N)[C@H]1O[C@H]1O[C@H](CN)[C@@H](OCc2ccc3ccccc3c2)[C@H](OCc2ccc3ccccc3c2)[C@H]1N , MIC reported as 16

MIC reading for NCCCCCCO[C@@H]1[C@@H](OCc2ccc3ccccc3c2)[C@H](N)C[C@H](N)[C@H]1O[C@H]1O[C@H](CN)[C@@H](OCc2ccc3ccccc3c2)[C@H](OCc2ccc3ccccc3c2)[C@H]1N : 4

Record CN1CCN(c2c(F)cc3c(=O)c(C(=O)O)cn(CCF)c3c2F)CC1 . Reported MIC: 16

Form field MIC, entry O=C(O)c1cn(C2CC2)c2cc(N3CCNCC3)c(F)cc2c1=O : 8

* * *

Test system: Klebsiella aerogenes
assay-details: Antibacterial activity against Enterobacter aerogenes EA298 TolC deficient after 18 hrs by broth dilution method
measurement-parameters: EA298, 18 h
Field: MIC. Provide a value for each of the compounds that follow.

MIC for NC[C@H]1O[C@H](O[C@H]2[C@H](OCCCCCCNC(=O)CCCC(=O)Nc3cccc(CN(Cc4ccccc4)Cc4ccccc4)c3)[C@@H](OCc3ccc4ccccc4c3)[C@H](N)C[C@@H]2N)[C@H](N)[C@@H](OCc2ccc3ccccc3c2)[C@@H]1OCc1ccc2ccccc2c1 is 64 to 128 µM

Field MIC (entry CC(C)(O/N=C(\C(=O)N[C@@H]1C(=O)N2C(C(=O)[O-])=C(C[n+]3ccccc3)CS[C@H]12)c1csc(N)n1)C(=O)O ) reads > 128 µM

Entry NC[C@H]1O[C@H](O[C@H]2[C@H](OCCCCCCNC(=O)CCCC(=O)N3CCCNCCNCCCNCC3)[C@@H](OCc3ccc4ccccc4c3)[C@H](N)C[C@@H]2N)[C@H](N)[C@@H](OCc2ccc3ccccc3c2)[C@@H]1OCc1ccc2ccccc2c1 , MIC reported as 2 to 4 µM
